The reported numbers originate from patent US20200247894A1.

Molecular target: T1, human IL2Rγ (endogenously expressed on cells) (human, UniProt P31785 23-369)
T1 sequence (looked up): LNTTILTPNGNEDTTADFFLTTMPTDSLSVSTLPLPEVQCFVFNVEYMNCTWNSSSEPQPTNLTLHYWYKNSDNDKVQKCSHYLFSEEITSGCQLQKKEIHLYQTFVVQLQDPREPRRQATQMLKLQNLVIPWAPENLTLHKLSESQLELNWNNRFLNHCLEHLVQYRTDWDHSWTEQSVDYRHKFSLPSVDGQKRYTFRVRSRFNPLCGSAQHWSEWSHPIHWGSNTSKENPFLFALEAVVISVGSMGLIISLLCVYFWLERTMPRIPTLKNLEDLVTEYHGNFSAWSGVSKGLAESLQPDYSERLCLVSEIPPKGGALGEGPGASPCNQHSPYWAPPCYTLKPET
Assay: cell-based or functional assay
Entries and their IC50; IL-7 50 pM; NK92/hIL7R/STAT3-luc
Only the number, expressed in M, is required.

// below: answered binders
binder: H4H12871P (antibody, human IgG4 S228P, kappa, V domains shown, human IgG4; also called REGN9434) VH: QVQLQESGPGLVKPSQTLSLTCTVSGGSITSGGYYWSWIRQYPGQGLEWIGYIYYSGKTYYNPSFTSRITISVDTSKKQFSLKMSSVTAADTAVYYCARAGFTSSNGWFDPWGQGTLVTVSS VL: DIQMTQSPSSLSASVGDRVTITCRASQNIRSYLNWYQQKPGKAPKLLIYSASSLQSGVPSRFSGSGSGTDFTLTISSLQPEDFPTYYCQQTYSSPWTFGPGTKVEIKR
IC50; IL-7 50 pM; NK92/hIL7R/STAT3-luc, M: 8.2e-10
--
binder: H4H12884P (antibody, human IgG4 S228P, kappa, V domains shown, human IgG4) VH: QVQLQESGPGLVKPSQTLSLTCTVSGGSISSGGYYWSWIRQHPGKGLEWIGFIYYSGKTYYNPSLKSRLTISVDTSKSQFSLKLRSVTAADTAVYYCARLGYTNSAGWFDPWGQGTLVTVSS VL: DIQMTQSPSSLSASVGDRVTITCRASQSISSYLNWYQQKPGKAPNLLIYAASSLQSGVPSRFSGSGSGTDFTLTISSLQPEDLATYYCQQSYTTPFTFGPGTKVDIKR
IC50; IL-7 50 pM; NK92/hIL7R/STAT3-luc, M: 2.3e-09
--
binder: H4H12889P (antibody, human IgG4 S228P, kappa, V domains shown, human IgG4; also called REGN7257) VH: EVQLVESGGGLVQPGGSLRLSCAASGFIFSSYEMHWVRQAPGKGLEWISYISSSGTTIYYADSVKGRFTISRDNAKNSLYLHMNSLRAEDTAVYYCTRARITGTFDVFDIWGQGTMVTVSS VL: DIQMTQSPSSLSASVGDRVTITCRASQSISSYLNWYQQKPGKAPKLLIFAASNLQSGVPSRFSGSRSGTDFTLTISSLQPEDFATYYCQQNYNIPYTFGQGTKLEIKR
IC50; IL-7 50 pM; NK92/hIL7R/STAT3-luc, M: 3e-09
--
binder: H4H12857P (antibody, human IgG4 S228P, kappa, V domains shown, human IgG4; also called REGN9432) VH: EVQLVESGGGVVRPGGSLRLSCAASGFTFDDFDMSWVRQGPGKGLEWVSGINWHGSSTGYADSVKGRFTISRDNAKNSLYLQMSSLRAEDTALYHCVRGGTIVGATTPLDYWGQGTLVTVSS VL: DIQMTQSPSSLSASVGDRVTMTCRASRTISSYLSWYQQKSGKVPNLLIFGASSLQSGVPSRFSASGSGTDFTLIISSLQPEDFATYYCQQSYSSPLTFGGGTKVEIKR
IC50; IL-7 50 pM; NK92/hIL7R/STAT3-luc, M: 1.6e-08
--
binder: H4H12863P (antibody, human IgG4 S228P, kappa, V domains shown, human IgG4) VH: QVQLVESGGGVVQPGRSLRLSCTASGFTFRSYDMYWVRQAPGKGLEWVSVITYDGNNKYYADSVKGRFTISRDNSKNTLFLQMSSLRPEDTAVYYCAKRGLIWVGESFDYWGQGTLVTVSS VL: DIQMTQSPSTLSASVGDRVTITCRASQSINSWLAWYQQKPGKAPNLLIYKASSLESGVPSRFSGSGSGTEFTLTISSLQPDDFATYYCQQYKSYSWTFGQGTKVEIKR
IC50; IL-7 50 pM; NK92/hIL7R/STAT3-luc, M: 1.5e-09

Turning now to a further binder:
Exercise: # lookup: IC50; IL-7 50 pM; NK92/hIL7R/STAT3-luc of H4H12874P (antibody, human IgG4 S228P, kappa, V domains shown, human IgG4) VH: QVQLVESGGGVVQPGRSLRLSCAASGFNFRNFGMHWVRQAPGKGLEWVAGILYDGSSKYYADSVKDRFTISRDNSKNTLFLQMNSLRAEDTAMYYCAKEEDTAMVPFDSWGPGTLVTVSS VL: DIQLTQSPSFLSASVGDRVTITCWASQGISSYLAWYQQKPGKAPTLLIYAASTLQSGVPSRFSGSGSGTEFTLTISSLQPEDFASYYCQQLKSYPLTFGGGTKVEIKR
Solution: 4.1e-08
